- System: Pneumocystis carinii
- assay_overview: animal or person
- Assay type: in vivo, Pneumocystis carinii; rat
- protocol_conditions: Pneumocystis carinii, in Rattus norvegicus, iv, 336 h, 10.0 μmol/kg/day iv via tail vein, once daily 14 days, rats (4 rats for 3, 4, 9); read-out: Pneumocystis carinii % Saline control ± std error
endpoint: response vs control in vivo at 10 µmol/kg (%)
Provide the reading as a plain figure in %.

Known response vs control in vivo at 10 µmol/kg results, listed for orientation:
>  <compound>
CC(C)NC(=N)c1ccc2c(c1)sc1cc(C(=N)NC(C)C)ccc12 [Compound 8]

>  <measured>
0.04

$$$$
>  <compound>
Cl.Cl.N=C(NO)c1ccc2c(c1)sc1cc(C(=N)NO)ccc12 [Compound 9 (Example 1), dihydrochloride]

>  <measured>
112

$$$$
>  <compound>
N=C(N)c1ccc2sc3ccc(C(=N)N)cc3c2c1 [Compound 1]

>  <measured>
0.1

$$$$

Exam item: Find the recorded response vs control in vivo at 10 µmol/kg belonging to NC(=NO)c1ccc2sc3ccc(C(N)=NO)cc3c2c1 [Compound 3] and report it.
Marked response: 1.3

Exam item: I would be grateful if you could share the reported response vs control in vivo at 10 µmol/kg for CC(C)NC(=N)c1ccc2sc3ccc(C(=N)NC(C)C)cc3c2c1 [Compound 2] .
Marked response: 0.01

Exam item: Which response vs control in vivo at 10 µmol/kg value is on record for O=S1(=O)c2ccc(C3=NCCN3)cc2-c2cc(C3=NCCN3)ccc21 [Compound 6] ?
Marked response: 93.5

Exam item: Would you kindly share the measured response vs control in vivo at 10 µmol/kg for c1cc2sc3ccc(C4=NCCN4)cc3c2cc1C1=NCCN1 [Compound 5] ?
Marked response: 28

Exam item: What value of response vs control in vivo at 10 µmol/kg has been recorded for this entry: N=C(N)c1ccc2c(c1)sc1cc(C(=N)N)ccc12 [Compound 7]
Marked response: 36

----------
- System: Pneumocystis carinii
- assay_overview: Activity against Pneumocystis carinii pneumonia (PCP) in the rat model, dibenzofuran dications (Example 2, Table 2)
- Format: in vivo
- protocol_conditions: Pneumocystis carinii, iv, 336 h; 10.0 μmol/kg/day i.v. via tail vein, once daily 14 days, 8 rats; read-out: Pneumocystis carinii % Saline control ± std error
Where a name gives a salt, the structure may show the parent alone.
Let's look at some compounds and their measured response vs control in vivo at 10 µmol/kg.
Numeric only. Scale: %

>  <compound>
c1cc2c(cc1C1=NCCN1)oc1cc(C3=NCCN3)ccc12 [Compound 6 (Example 2), dihydrochloride]

>  <measured>
220

$$$$
>  <compound>
c1cc2oc3ccc(C4=NCCN4)cc3c2cc1C1=NCCN1 [Compound 2 (Example 2), dihydrochloride]

>  <measured>
97.4

$$$$
>  <compound>
CC(C)NC(=N)c1ccc2c(c1)oc1cc(C(=N)NC(C)C)ccc12 [Compound 7 (Example 2), dihydrochloride]

>  <measured>
0.28

$$$$

Exam item: Item Cl.Cl.N=C(NO)c1ccc2oc3ccc(C(=N)NO)cc3c2c1 [Compound 4 (Example 2), dihydrochloride] with Pneumocystis carinii - response vs control in vivo at 10 µmol/kg?
Marked response: 15.8

Exam item: Give Pneumocystis carinii response vs control in vivo at 10 µmol/kg for NC(=NO)c1ccc2c(c1)oc1cc(C(N)=NO)ccc12 [Compound 8 (Example 2), dihydrochloride]
Marked response: 166

Exam item: Could you share what response vs control in vivo at 10 µmol/kg was measured for N=C(N)c1ccc2c(c1)oc1cc(C(=N)N)ccc12 [Compound 5 (Example 2), dihydrochloride] , tested on Pneumocystis carinii?
Marked response: 183

Exam item: Given the entry CC(C)NC(=N)c1ccc2oc3ccc(C(=N)NC(C)C)cc3c2c1 [Compound 3 (Example 2), dihydrochloride] , what response vs control in vivo at 10 µmol/kg was observed with Pneumocystis carinii?
Marked response: 0.5
